Value source: paper PMC7284125

- Tested on: S. mansoni schistosomulae
- Protocol summary: Motility assay on schistosomulae (pixel displacement, relative to DMSO control)
- Type: cell-based, Schistosoma mansoni
- Condition summary: schistosomulae, secondary screen, 24h exposure, read at D5, 1 µM
Assay readout: Fractional motility
Note: the reply should be a number with no unit written.

Answer with Fractional motility of COC(=O)C1=CCCN(C)C1 [Arecoline] measured for S. mansoni schistosomulae.
1.22

Answer with Fractional motility of COc1cc(N2CCC(N)CC2)ccc1Nc1ncc(Cl)c(-c2c[nH]c3ccccc23)n1 [AZD3463] measured for S. mansoni schistosomulae.
0.15

Answer with Fractional motility of O=[N+]([O-])c1ccc2c(c1)S(=O)(=O)C=C2 [Stattic] measured for S. mansoni schistosomulae.
-0.47

Answer with Fractional motility of CCn1c2ccccc2c2cc(Nc3ccnc(NCCCN4CCOCC4)n3)ccc21 [EHop-016] measured for S. mansoni schistosomulae.
0.99

Answer with Fractional motility of CCCCCCCCCCCCCCCCn1cc[n+](Cc2ccccc2)c1C.[I-] [NH125] measured for S. mansoni schistosomulae.
-0.08

Answer with Fractional motility of Cc1cnc(-c2cc(N3CCN(C(=O)CCS(C)(=O)=O)CC3)ncc2Cl)c(C)c1 [PF-5274857] measured for S. mansoni schistosomulae.
-0.49

Answer with Fractional motility of O=C(/C=C/c1ccc2ccccc2n1)c1ccncc1 [PFK15] measured for S. mansoni schistosomulae.
-0.50

Answer with Fractional motility of CC(=O)c1cc([N+](=O)[O-])c(Sc2ccc(F)cc2F)s1 [P22077] measured for S. mansoni schistosomulae.
-0.61

Answer with Fractional motility of C/C(=N\NC(=S)N1CCC1)c1ccccn1 [NSC319726] measured for S. mansoni schistosomulae.
-0.75

Answer with Fractional motility of CCc1ccc(OCc2ccccc2C(=O)Nc2ccc3nc(C)cc(N)c3c2)cc1 [JTC-801] measured for S. mansoni schistosomulae.
1.04
